Below, each of the compounds is paired with its reported MIC value.
# Tested on: S. epidermidis 56500
# assay-details: Antibacterial activity (MIC), standard method of the Japan Society of Chemotherapy
# Type: cell-based
# condition-context: Staphylococcus epidermidis; S. epidermidis 56500; read-out: MIC
Return type: number; implicit unit µg/mL.

CC[C@H]1CN(c2c(F)cc3c(=O)c(C(=O)O)cn([C@@H]4C[C@@H]4F)c3c2C)C[C@H]1N; 0.025
CC[C@H]1CN(c2c(F)cc3c(=O)c(C(=O)O)cn4c3c2OC[C@@H]4C)C[C@H]1N; 0.05
CC[C@H]1CN(c2c(F)cc3c(=O)c(C(=O)O)cn([C@@H]4C[C@@H]4F)c3c2OC)C[C@H]1N; 0.05
COc1c(N2C[C@@H](N)[C@@H](C3CC3)C2)c(F)cc2c(=O)c(C(=O)O)cn([C@@H]3C[C@@H]3F)c12; 0.1

Continue with the compound presented below.
Problem: # assay system S. epidermidis 56500: give MIC of "Cc1c(N2C[C@@H](N)[C@@H](C(C)C)C2)c(F)cc2c(=O)c(C(=O)O)cn([C@@H]3C[C@@H]3F)c12"
Result: 0.025

----------
# Test system: P. aeruginosa 32104
# assay-details: Antibacterial activity (MIC), standard method of the Japan Society of Chemotherapy
# Assay type: cell-based
# condition-context: Pseudomonas aeruginosa; P. aeruginosa 32104; read-out: MIC
property: MIC

Cc1c(N2C[C@@H](N)[C@@H](C(C)C)C2)c(F)cc2c(=O)c(C(=O)O)cn([C@@H]3C[C@@H]3F)c12 [Compound No. 16]; 0.2 µg/mL
COc1c(N2C[C@@H](N)[C@@H](C3CC3)C2)c(F)cc2c(=O)c(C(=O)O)cn([C@@H]3C[C@@H]3F)c12 [Compound No. 8]; 0.2 µg/mL
CC[C@H]1CN(c2c(F)cc3c(=O)c(C(=O)O)cn([C@@H]4C[C@@H]4F)c3c2C)C[C@H]1N [Compound No. 2]; 0.05 µg/mL
CC[C@H]1CN(c2c(F)cc3c(=O)c(C(=O)O)cn4c3c2OC[C@@H]4C)C[C@H]1N [Compound No. 3]; 0.1 µg/mL

Continue with the compound presented below.
Problem: Specify MIC for CC[C@H]1CN(c2c(F)cc3c(=O)c(C(=O)O)cn([C@@H]4C[C@@H]4F)c3c2OC)C[C@H]1N [Compound No. 1] and stop.
Result: 0.2 µg/mL

----------
# System: Chinese hamster lung (CHL/IU) cells
# assay-details: Effect of inducing chromosomal aberration
# Format: cell-based
# condition-context: 1 μg/mL, 24 hours, CHL/IU cells
Below, each of the compounds is paired with its reported Percentile induction of structural aberration (TA %) value.
Return type: number; implicit unit %.

Field: example entries. Status: answers known.
CC[C@H]1CN(c2c(F)cc3c(=O)c(C(=O)O)cn4c3c2OC[C@@H]4C)C[C@H]1N; 3
CC[C@H]1CN(c2c(F)cc3c(=O)c(C(=O)O)cn(C4CC4)c3c2C)C[C@H]1N [Comparative Compound D, reference compound]; 4
CC[C@H]1CN(c2c(F)cc3c(=O)c(C(=O)O)cn([C@@H]4C[C@@H]4F)c3c2OC)C[C@H]1N; 0
CC[C@H]1CN(c2c(F)c(N)c3c(=O)c(C(=O)O)cn(C4CC4)c3c2C)C[C@H]1N [Comparative Compound E, reference compound]; 0

Problem: Specify Percentile induction of structural aberration (TA %) for "CC[C@H]1CN(c2c(F)cc3c(=O)c(C(=O)O)cn([C@@H]4C[C@@H]4F)c3c2C)C[C@H]1N" and stop.
Result: 1

----------
Below, each of the molecules is paired with its reported melting point value.

Field: example entries. Status: answers known.
Cc1c(N2C[C@@H](N)[C@@H](C(C)C)C2)c(F)cc2c(=O)c(C(=O)O)cn([C@@H]3C[C@@H]3F)c12; 124 to 127 °C
C[C@H]1COc2c(N3C[C@@H](N)[C@@H](C4CC4)C3)c(F)cc3c(=O)c(C(=O)O)cn1c23; 218 to 220 °C

Problem: Specify melting point for "CN[C@@H]1CN(c2c(F)cc3c(=O)c(C(=O)O)cn([C@@H]4C[C@@H]4F)c3c2C)C[C@@H]1C(C)C" and stop.
Result: 168 to 171 °C

Problem: Specify melting point for "CC[C@H]1CN(c2c(F)cc3c(=O)c(C(=O)O)cn([C@@H]4C[C@@H]4F)c3c2C)C[C@H]1NC" and stop.
Result: 223 to 225 °C

----------
Below, each of the molecules is paired with its reported Percentile induction of structural aberration (TA %) value.
# Test system: Chinese hamster lung (CHL/IU) cells
# assay-details: Effect of inducing chromosomal aberration
# Format: cell-based
# condition-context: 10 μg/mL, 24 hours, CHL/IU cells
Return type: number; implicit unit %.

CC[C@H]1CN(c2c(F)cc3c(=O)c(C(=O)O)cn4c3c2OC[C@@H]4C)C[C@H]1N; 2
CC[C@H]1CN(c2c(F)c(N)c3c(=O)c(C(=O)O)cn(C4CC4)c3c2C)C[C@H]1N [Comparative Compound E, reference compound]; 1
CC[C@H]1CN(c2c(F)cc3c(=O)c(C(=O)O)cn(C4CC4)c3c2C)C[C@H]1N [Comparative Compound D, reference compound]; 3
CC[C@H]1CN(c2c(F)cc3c(=O)c(C(=O)O)cn([C@@H]4C[C@@H]4F)c3c2C)C[C@H]1N; 1

Continue with the molecule presented below.
Problem: Specify Percentile induction of structural aberration (TA %) for "CC[C@H]1CN(c2c(F)cc3c(=O)c(C(=O)O)cn([C@@H]4C[C@@H]4F)c3c2OC)C[C@H]1N" and stop.
Result: 2

----------
# Tested on: Slc:ddY male mice
# assay-details: Effect of inducing convulsion, intracisternal administration to mice
# Type: in vivo
# condition-context: i.cist., Probit method
Marks after values point to notes of the source that are not given here.
Below, each of the compounds is paired with its reported CD50 (50% concentration for inducing convulsion), with 95% confidence limit value.

Problem: Specify CD50 (50% concentration for inducing convulsion), with 95% confidence limit for "CC[C@H]1CN(c2c(F)cc3c(=O)c(C(=O)O)cn([C@@H]4C[C@@H]4F)c3c2OC)C[C@H]1N" and stop.
Result: 49.2^b) μg/5 μL/mouse

Problem: Specify CD50 (50% concentration for inducing convulsion), with 95% confidence limit for C[C@H]1CN(c2c(F)cc3c(=O)c(C(=O)O)cn4c3c2OC[C@@H]4C)C[C@H]1N [Comparative Compound B, reference compound] and stop.
Result: 28.6 (16.8-48.5)^a) μg/5 μL/mouse

Problem: Specify CD50 (50% concentration for inducing convulsion), with 95% confidence limit for COc1c(N2C[C@@H](N)[C@@H](C)C2)c(F)cc2c(=O)c(C(=O)O)cn([C@@H]3C[C@@H]3F)c12 [Comparative Compound A, reference compound] and stop.
Result: 12.7 (7.7-24.9)^a) μg/5 μL/mouse

Problem: Specify CD50 (50% concentration for inducing convulsion), with 95% confidence limit for "CC[C@H]1CN(c2c(F)cc3c(=O)c(C(=O)O)cn4c3c2OC[C@@H]4C)C[C@H]1N" and stop.
Result: 64.5 (47.7-80.8) μg/5 μL/mouse

----------
# System: S. pyogenes G-36
# assay-details: Antibacterial activity (MIC), standard method of the Japan Society of Chemotherapy
# Assay type: cell-based
# condition-context: Streptococcus pyogenes, G36; S. pyogenes G-36; read-out: MIC
property: MIC (µg/mL)
Return type: number; implicit unit µg/mL.

CC[C@H]1CN(c2c(F)cc3c(=O)c(C(=O)O)cn([C@@H]4C[C@@H]4F)c3c2C)C[C@H]1N [Compound No. 2]; 0.025
CC[C@H]1CN(c2c(F)cc3c(=O)c(C(=O)O)cn([C@@H]4C[C@@H]4F)c3c2OC)C[C@H]1N [Compound No. 1]; 0.05
Cc1c(N2C[C@@H](N)[C@@H](C(C)C)C2)c(F)cc2c(=O)c(C(=O)O)cn([C@@H]3C[C@@H]3F)c12 [Compound No. 16]; 0.025
COc1c(N2C[C@@H](N)[C@@H](C3CC3)C2)c(F)cc2c(=O)c(C(=O)O)cn([C@@H]3C[C@@H]3F)c12 [Compound No. 8]; 0.1

Continue with the molecule presented below.
Problem: Specify MIC for CC[C@H]1CN(c2c(F)cc3c(=O)c(C(=O)O)cn4c3c2OC[C@@H]4C)C[C@H]1N [Compound No. 3] and stop.
Result: 0.1

----------
# System: P. aeruginosa 32121
# assay-details: Antibacterial activity (MIC), standard method of the Japan Society of Chemotherapy
# Format: cell-based
# condition-context: Pseudomonas aeruginosa; P. aeruginosa 32121; read-out: MIC
Below, each of the compounds is paired with its reported MIC value.
Return type: number; implicit unit µg/mL.

Field: example entries. Status: answers known.
CC[C@H]1CN(c2c(F)cc3c(=O)c(C(=O)O)cn([C@@H]4C[C@@H]4F)c3c2OC)C[C@H]1N; 0.1
COc1c(N2C[C@@H](N)[C@@H](C3CC3)C2)c(F)cc2c(=O)c(C(=O)O)cn([C@@H]3C[C@@H]3F)c12; 0.1
CC[C@H]1CN(c2c(F)cc3c(=O)c(C(=O)O)cn4c3c2OC[C@@H]4C)C[C@H]1N; 0.05
Cc1c(N2C[C@@H](N)[C@@H](C(C)C)C2)c(F)cc2c(=O)c(C(=O)O)cn([C@@H]3C[C@@H]3F)c12; 0.1

Continue with the compound presented below.
Problem: # assay system P. aeruginosa 32121: give MIC of "CC[C@H]1CN(c2c(F)cc3c(=O)c(C(=O)O)cn([C@@H]4C[C@@H]4F)c3c2C)C[C@H]1N"
Result: 0.025
